# study.system: paf receptors on neutrophils (PMN) (Homo sapiens, UniProt P25105)
# Construct: Neutrophils (PMN) were prepared from venous blood (40 ml) from normal donors; endogenous in cells; host or cells: intact neutrophils (PMN) from venous blood of normal donors
# Sequence (P25105 whole entry): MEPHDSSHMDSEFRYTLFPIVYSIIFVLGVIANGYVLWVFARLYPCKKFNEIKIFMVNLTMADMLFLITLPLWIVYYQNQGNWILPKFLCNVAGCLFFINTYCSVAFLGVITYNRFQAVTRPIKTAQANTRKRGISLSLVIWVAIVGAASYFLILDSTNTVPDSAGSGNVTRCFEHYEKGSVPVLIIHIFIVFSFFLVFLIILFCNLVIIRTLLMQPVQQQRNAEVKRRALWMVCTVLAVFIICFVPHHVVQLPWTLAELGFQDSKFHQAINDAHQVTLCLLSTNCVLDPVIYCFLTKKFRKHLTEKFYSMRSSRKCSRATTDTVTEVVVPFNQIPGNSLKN
# procedure.details: [^3H]paf binding to intact human neutrophils (PMN)
# experimental.parameters: 4° C.
reported.endpoint: pKd
Give bare numbers, as −log10 of the molar value.

| compound | reported.endpoint | value |
| --- | --- | --- |
| CCCCCCCCCCCCCCCCCCOC[C@H](COP(=O)([O-])OCC[N+](C)(C)C)OC(C)=O [[^3H]paf] | pKd | 9.36 |

INPUT: Recorded pKd of CCCCCCCCCCCCCCCCCCOC[C@H](COP(=O)([O-])OCC[N+](C)(C)C)OC(C)=O [paf] , please.
OUTPUT: 9.36
